# System: COLO 205
# Protocol Notes: NCI tumour cell line growth inhibition, 48 h
The source made the active and inactive calls. Rule as the data show it: active = GI50 up to about 1.1 µM and inactive = higher.
Can you answer with just one of these options? class 1 (active), class 0 (inactive)

COc1ccc(C2COc3cc(OC(C)=O)c(OC(C)=O)cc3C2)cc1 (centres undefined)    class 0
CCCCCCCCCCCCCCCC(=O)N[C@H]1CCc2cc(OC)c(OC)c(OC)c2-c2ccc(SC)c(=O)cc21    class 1
C/C(=N\NC(N)=S)c1ccc(/C(C)=N/NC(N)=S)cc1    class 0
c1ccc(-n2cnnc2-c2nsc3ccccc23)cc1    class 0
CC(C)=CC(=O)c1[nH]c2ccccc2c1CC(=O)NCCc1c[nH]cn1    class 0

### Prompt Given CC1CCCCN1CC(=O)c1ccc2c(c1)Sc1ccccc1O2 (centres undefined) , state the outcome it received in this test.
### Response class 0

### Prompt Given Cc1ccc(S(=O)(=O)N2CCN(CCN(C)CCN3CCN(S(=O)(=O)c4ccc(C)cc4)CC3)CC2)cc1 , state the outcome it received in this test.
### Response class 0

### Prompt Given COC(=O)C1=C(C(=O)OC)C(OO)(c2ccccc2)OC1=O (centres undefined) , state the outcome it received in this test.
### Response class 0

### Prompt Given CCCCCCCCCCOC1C(C(O)CNCCCN(C)C)OC2OC3(CCCCC3)OC21 (centres undefined) , state the outcome it received in this test.
### Response class 0

### Prompt Given COc1ccc(/N=N/c2ccc3oc(=O)c(C(=O)Nc4ccc(OC)cc4)cc3c2)cc1 , state the outcome it received in this test.
### Response class 0

### Prompt Given CCn1c2ccc(C(=O)CCCN(C)C)cc2c2cc(C(=O)CCCN(C)C)ccc21 , state the outcome it received in this test.
### Response class 1

### Prompt Given CNC(=S)/N=C(\N)N(C)C , state the outcome it received in this test.
### Response class 0

### Prompt Given Nc1ccc2c(=O)cc(-c3ccc(Br)s3)[nH]c2n1 , state the outcome it received in this test.
### Response class 0

### Prompt Given COC12OCCN(C)C1=CC(=O)C1N=NCC12 (centres undefined) , state the outcome it received in this test.
### Response class 0

###

# System: MOLT-4
# Protocol Notes: NCI tumour cell line growth inhibition, 48 h
The source made the active and inactive calls. No stated cut-off is given here; in the data, active = GI50 up to about 1.1 µM and inactive = higher.
Measured Endpoint: GI50

O=C(/C=C/c1ccccc1)CCC1C(=O)NC(=O)NC1=O    35.7 µM (inactive)

### Prompt Looking for the measured GI50 of COC(=O)C1C(=O)CC(C)(O)C(C(=O)OC)C1c1ccc(N(C)C)cc1 (stereo not drawn) , can you help?
### Response > 100 µM (inactive)

### Prompt Looking for the measured GI50 of CCC1(CN(C)C)CC/C(=C\c2ccc(OC)cc2)C1=O (stereo not drawn) , can you help?
### Response 3.14 µM (inactive)

###

# Tested on: SNB-19
# Protocol Notes: NCI tumour cell line growth inhibition, 48 h
The source made the active and inactive calls. No stated cut-off is given here; in the data, active = GI50 up to about 1.1 µM and inactive = higher.
Measured Endpoint: GI50

Sample answers from the record:
COc1cccc2c1C(=O)c1c(O)c3c(c(O)c1C2=O)C[C@@](O)(C(=O)CN1CCOCC1)C[C@@H]3OC1CC(N)C(O)C(C)O1 (stereo partly drawn)    2.62 µM (inactive)
CC(=N/NC(=S)N1CCCCC1)/C(C)=N\NC(=S)N1CCCCC1    1.88 µM (inactive)
CCOC(=O)c1ccc(C(=O)/C(C(=O)OC(C)(C)C)=C2\CCCN2C)n1C    > 100 µM (inactive)

### Prompt Under SNB-19: GI50 value of Cc1ccccc1NC(=O)CC(=O)NNC(Sc1ccccc1)c1cc(/N=N/c2ccc(Br)cc2)ccc1O (stereo not drawn) ?
### Response 9.48 µM (inactive)

### Prompt Under SNB-19: GI50 value of O=C(C/N=C(\CN(c1ccccc1)c1ccccc1)Oc1c([N+](=O)[O-])cc([N+](=O)[O-])cc1[N+](=O)[O-])N1CCNCC1 ?
### Response > 100 µM (inactive)

### Prompt Under SNB-19: GI50 value of Oc1ccc(Br)cc1/C=N/c1ccc(/N=C/c2cc(Br)ccc2O)cc1 ?
### Response > 100 µM (inactive)

### Prompt Under SNB-19: GI50 value of CC1(N2CCOCC2)CC2C(=[N+]1[O-])CCC/C2=N/O (stereo not drawn) ?
### Response > 100 µM (inactive)

### Prompt Under SNB-19: GI50 value of O=C(NNC(=S)Nc1cccc(Cl)c1)c1cc(-c2ccccc2)nc2ccccc12 ?
### Response 17 µM (inactive)
